Tested On: αvβ3 (vitronectin receptor) (Homo sapiens, UniProt P05106+P06756)
Construct: Human placenta or human platelet αvβ3 (0.1-0.3 mg/mL) in buffer T; from tissue; host or cells: human placenta or human platelets
Sequence (P06756 31-889 limits assumed): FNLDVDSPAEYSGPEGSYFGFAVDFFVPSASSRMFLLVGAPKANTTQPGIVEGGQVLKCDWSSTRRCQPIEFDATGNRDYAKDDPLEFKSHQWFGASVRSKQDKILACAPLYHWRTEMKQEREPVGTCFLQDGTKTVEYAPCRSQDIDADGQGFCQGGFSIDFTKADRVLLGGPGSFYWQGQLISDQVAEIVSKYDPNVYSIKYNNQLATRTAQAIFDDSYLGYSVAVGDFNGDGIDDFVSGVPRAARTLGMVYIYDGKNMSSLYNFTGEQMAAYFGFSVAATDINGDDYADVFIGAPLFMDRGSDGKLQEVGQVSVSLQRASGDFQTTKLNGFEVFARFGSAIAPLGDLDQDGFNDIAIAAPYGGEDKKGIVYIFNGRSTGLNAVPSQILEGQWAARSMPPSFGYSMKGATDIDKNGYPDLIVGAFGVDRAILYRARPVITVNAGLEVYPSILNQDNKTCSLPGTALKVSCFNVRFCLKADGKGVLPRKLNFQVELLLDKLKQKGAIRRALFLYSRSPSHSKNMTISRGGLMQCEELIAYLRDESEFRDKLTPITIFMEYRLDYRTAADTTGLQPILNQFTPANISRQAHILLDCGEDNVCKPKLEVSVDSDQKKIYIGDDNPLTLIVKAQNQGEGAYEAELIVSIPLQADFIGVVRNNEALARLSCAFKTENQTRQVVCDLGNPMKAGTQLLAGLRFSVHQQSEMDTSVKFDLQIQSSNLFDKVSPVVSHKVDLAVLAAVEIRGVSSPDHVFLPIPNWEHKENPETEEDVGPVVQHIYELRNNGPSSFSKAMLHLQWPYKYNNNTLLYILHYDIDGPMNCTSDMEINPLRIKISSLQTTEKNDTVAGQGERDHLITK
Sequence (P06756 891-1048 partner limits assumed): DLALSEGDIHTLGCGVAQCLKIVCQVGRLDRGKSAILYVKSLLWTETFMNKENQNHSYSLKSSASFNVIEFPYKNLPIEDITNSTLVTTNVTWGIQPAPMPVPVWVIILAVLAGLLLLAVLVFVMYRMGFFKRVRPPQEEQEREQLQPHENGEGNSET
Sequence (P05106 27-788): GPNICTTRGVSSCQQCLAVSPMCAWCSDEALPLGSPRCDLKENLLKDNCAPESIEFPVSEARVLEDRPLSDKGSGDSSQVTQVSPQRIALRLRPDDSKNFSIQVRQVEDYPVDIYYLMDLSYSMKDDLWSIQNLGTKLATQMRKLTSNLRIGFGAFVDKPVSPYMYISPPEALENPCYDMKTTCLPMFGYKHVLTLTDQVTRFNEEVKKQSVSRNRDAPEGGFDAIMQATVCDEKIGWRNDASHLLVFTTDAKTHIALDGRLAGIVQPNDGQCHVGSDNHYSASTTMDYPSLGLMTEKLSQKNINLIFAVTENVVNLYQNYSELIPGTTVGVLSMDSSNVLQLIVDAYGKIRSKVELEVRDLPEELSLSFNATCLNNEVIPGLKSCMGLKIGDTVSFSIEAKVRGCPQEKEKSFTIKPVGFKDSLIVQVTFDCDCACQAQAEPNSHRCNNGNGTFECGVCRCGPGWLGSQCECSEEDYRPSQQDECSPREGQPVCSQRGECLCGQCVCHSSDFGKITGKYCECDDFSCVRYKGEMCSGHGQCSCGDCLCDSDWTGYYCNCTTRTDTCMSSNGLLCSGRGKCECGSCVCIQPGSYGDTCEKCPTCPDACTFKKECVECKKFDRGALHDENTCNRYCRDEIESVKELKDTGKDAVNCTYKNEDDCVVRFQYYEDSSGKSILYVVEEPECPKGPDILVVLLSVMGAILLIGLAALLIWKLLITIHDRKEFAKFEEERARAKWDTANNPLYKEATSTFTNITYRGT
Measurement Notes: Solid-phase [3H]-SK&F-107260 binding to αvβ3 (inhibition of vitronectin binding)
Cond: selectivity αIIbβ3/αVβ3
Output y for ratio* (enhanced binding to vitronectin receptor vs fibrinogen receptor = αIIbβ3/αVβ3) not less than 3; output n otherwise.

> print(dat)
                                    molecule  class
 1  CN1Cc2cc(NC(=O)[C@@H](N)Cc3ccccc3)ccc2CC(CC(=O)O)C1=O (mixture of isomers) [Example 15]      y
 2  CN1Cc2cc(NC(=O)OCc3ccccc3)ccc2CC(CC(=O)O)C1=O (racemic) [Example 6]      n
 3  CN(CC(O)c1ccccc1)C(=O)c1ccc2c(c1)CN(C)C(=O)C(CC(=O)O)C2 (racemic) [Example 16]      n
 4  Nc1ccc(NC(=O)c2ccc3c(c2)CN(CCc2ccccc2)C(=O)C(CC(=O)O)N3)cn1 (racemic) [Example 3]      y
 5  CN1Cc2cc(C(=O)N3CCN(Cc4ccccc4)CC3)ccc2NC(CC(=O)O)C1=O (racemic) [Example 13]      n
 6  CN1Cc2cc(C(=O)N3CCN(c4ncccn4)CC3)ccc2NC(CC(=O)O)C1=O (racemic) [Example 14]      y
 7  CN1Cc2cc(C(=O)Nc3cccc(C(N)=O)c3)ccc2NC(CC(=O)O)C1=O (racemic) [Example 8]      y
 8  CN1Cc2cc(NC(=O)CNc3ccccn3)ccc2CC(CC(=O)O)C1=O (racemic) [Example 18]      y
 9  CN1Cc2cc(C(=O)N3CCN(c4ccccc4)CC3)ccc2NC(CC(=O)O)C1=O (racemic) [Example 9]      y
10  CN1Cc2cc(NC(=O)CCN)ccc2CC(CC(=O)O)C1=O (racemic) [Example 21]      y
11  CN1Cc2cc(C(=O)N3CCC(N4CCCCC4)CC3)ccc2NC(CC(=O)O)C1=O (racemic) [Example 11]      y
12  CN1Cc2cc(NC(=O)c3ccccn3)ccc2CC(CC(=O)O)C1=O (racemic) [Example 5]      y
13  CN1Cc2cc(NC(=O)CN)ccc2CC(CC(=O)O)C1=O (racemic) [Example 20]      y
14  CN(CCO)C(=O)c1ccc2c(c1)CN(C)C(=O)C(CC(=O)O)N2 (racemic) [Example 17]      y

====

Tested On: αvβ3 (vitronectin receptor) (Homo sapiens, UniProt P05106+P06756)
Construct: Human placenta or human platelet αvβ3 (0.1-0.3 mg/mL) in buffer T; from tissue; host or cells: human placenta or human platelets
Measurement Notes: Solid-phase [3H]-SK&F-107260 binding to αvβ3 (inhibition of vitronectin binding)
Cond: read-out: αVβ3
Entries are grouped by Ki into these classes: low group (below 2 µM), middle group (2 µM to below 9 µM), high group (9 µM or more)

> print(dat)
                                   molecule         class
1  CN(CCO)C(=O)c1ccc2c(c1)CN(C)C(=O)C(CC(=O)O)N2 (racemic)    high group
2  CN1Cc2cc(NC(=O)[C@@H](N)Cc3ccccc3)ccc2CC(CC(=O)O)C1=O (mixture of isomers)  middle group
3  CN1Cc2cc(NC(=O)CCN)ccc2CC(CC(=O)O)C1=O (racemic)     low group
4  CN1Cc2cc(C(=O)Nc3cccc(C(N)=O)c3)ccc2NC(CC(=O)O)C1=O (racemic)    high group
5  CN1Cc2cc(NC(=O)CN)ccc2CC(CC(=O)O)C1=O (racemic)     low group
6  CN1Cc2cc(C(=O)N3CCC(N4CCCCC4)CC3)ccc2NC(CC(=O)O)C1=O (racemic)     low group
7  CN(CC(O)c1ccccc1)C(=O)c1ccc2c(c1)CN(C)C(=O)C(CC(=O)O)C2 (racemic)    high group
8  CN1Cc2cc(C(=O)N3CCN(c4ncccn4)CC3)ccc2NC(CC(=O)O)C1=O (racemic)  middle group
9  CN1Cc2cc(C(=O)N3CCNCC3)ccc2NC(CC(=O)O)C1=O (racemic)     low group
